Assay: APR_HepG2_CellLoss_24hr: Apredica 24-hour HepG2 Assay for Cell Loss (AID 2282908)
Conditions: high-content imaging
Calls of active or inactive are those of the source. How the source made its calls: active means hit-call score of the fitted dose curve at least 0.9, where 1 is the maximum; inactive means score below 0.9.
API: response.call in true (1) for active, false (0) for inactive

Below, 3 compounds whose answers are already recorded.
CCN(C(=O)c1cc(C)cc(OC[C@H](C)Nc2ccncc2)c1)C(C)C ... false (0)
CCNc1ccccc1 ... false (0)
CC(=O)OC[C@H]1O[C@@](COC(C)=O)(O[C@H]2O[C@H](COC(C)=O)[C@@H](OC(C)=O)[C@H](OC(C)=O)[C@H]2OC(C)=O)[C@@H](OC(C)=O)[C@@H]1OC(C)=O ... false (0)

Challenge: For CC(C)CCCCCCOC(=O)c1ccc(C(=O)OCCCCCCC(C)C)c(C(=O)OCCCCCCC(C)C)c1 , which call appears in the assay record?
Response given: false (0)

Challenge: For O=C1CCCCCN1 , which call appears in the assay record?
Response given: false (0)

Challenge: For O=c1[nH]c2ccc(S(=O)CCN3CCC(Cc4ccc(F)cc4)CC3)cc2o1 (centres undefined) , which call appears in the assay record?
Response given: false (0)

Attribution: PubChem BioAssay (EPA / NIEHS)
